Parameter pEC50: see the listing below.
# experimental-target: S1P1 (Homo sapiens (Human))
# Sequence (P21453 whole entry): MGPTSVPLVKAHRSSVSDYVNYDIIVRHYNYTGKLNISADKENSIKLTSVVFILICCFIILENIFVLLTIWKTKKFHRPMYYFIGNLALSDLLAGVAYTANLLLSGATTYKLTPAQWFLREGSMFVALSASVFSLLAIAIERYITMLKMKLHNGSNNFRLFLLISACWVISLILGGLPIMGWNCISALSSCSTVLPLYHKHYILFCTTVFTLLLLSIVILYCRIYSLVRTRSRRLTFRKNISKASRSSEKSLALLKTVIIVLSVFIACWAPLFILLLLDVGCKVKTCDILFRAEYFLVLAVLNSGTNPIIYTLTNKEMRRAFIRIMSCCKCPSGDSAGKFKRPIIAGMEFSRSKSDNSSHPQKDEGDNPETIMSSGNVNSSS
# procedure-text: Receptor [35S] GTPγS Binding Assay, S1P1/CHO cell membranes
# settings: membranes from S1P1/CHO cells; rounded to two significant digits
pEC50: −log10 of the molar value.
measurement-kind: pEC50

| compound | experimental-target | measurement-kind | sign | numeric-result |
| --- | --- | --- | --- | --- |
| c1ccc(C2(CCc3nc(-c4cccnc4)no3)CCCCC2)cc1 [Example 38] | S1P1 (Homo sapiens (Human)) | pEC50 | = | 7.00 |
| Clc1cc(-c2noc(CCC3(c4ccccc4)CCCCC3)n2)ccn1 [Example 32] | S1P1 (Homo sapiens (Human)) | pEC50 | = | 7.30 |
| c1ccc(-c2noc(C3(c4ccccc4)CCCCC3)n2)cc1 [Example 42, reference compound] | S1P1 (Homo sapiens (Human)) | pEC50 | < | 4.21 |
| FC(F)(F)c1cccc(-c2noc(CCC3(c4ccccc4)CCCCC3)n2)c1 [Example 8] | S1P1 (Homo sapiens (Human)) | pEC50 | = | 6.15 |
| Clc1ccc(-c2noc(CCC3(c4ccccc4)CCCCC3)n2)c(Cl)c1 [Example 17] | S1P1 (Homo sapiens (Human)) | pEC50 | = | 6.13 |
